# tested-on: human PDE2A1 (Homo sapiens (Human), UniProt O00408)
# Sequence (O00408 other isoform, or with tags, fused parts or gaps): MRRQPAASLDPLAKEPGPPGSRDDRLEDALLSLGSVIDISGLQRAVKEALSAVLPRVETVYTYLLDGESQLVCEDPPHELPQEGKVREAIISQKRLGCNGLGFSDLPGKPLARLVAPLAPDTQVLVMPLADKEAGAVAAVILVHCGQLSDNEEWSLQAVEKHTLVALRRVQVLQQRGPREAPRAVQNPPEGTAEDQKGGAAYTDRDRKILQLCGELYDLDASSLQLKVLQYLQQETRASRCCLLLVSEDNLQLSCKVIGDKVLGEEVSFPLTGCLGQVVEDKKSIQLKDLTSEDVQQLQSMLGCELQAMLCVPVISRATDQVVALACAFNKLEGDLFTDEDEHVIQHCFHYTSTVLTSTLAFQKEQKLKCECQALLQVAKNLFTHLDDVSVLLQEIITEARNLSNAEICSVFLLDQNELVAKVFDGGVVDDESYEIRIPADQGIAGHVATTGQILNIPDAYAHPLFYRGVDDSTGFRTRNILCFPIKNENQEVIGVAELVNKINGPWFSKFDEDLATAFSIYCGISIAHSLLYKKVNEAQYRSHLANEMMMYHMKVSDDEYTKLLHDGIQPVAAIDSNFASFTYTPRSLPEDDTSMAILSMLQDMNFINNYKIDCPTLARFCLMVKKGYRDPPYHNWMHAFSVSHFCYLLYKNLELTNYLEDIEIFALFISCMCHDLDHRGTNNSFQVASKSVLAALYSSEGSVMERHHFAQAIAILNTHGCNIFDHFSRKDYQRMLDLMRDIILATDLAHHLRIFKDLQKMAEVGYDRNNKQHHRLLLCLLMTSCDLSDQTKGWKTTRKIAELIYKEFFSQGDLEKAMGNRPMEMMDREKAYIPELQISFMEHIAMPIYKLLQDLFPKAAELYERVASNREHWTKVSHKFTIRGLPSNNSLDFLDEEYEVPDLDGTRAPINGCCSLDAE
# experimental-details: PDE selectivity IMAP FP assay, human PDE2A1
# Assay type: biochemical
# condition-summary: Human PDE2; Lab B; read-out: Human PDE2 Ki (nM) Lab B
Examples of compounds with documented Ki follow.
Your answer should be a plain number; it is taken to be in nM.

Use the examples below as a reference point.
CC(c1ccc(C(F)F)c(F)c1)n1nc(CF)c2c(=O)[nH]c(N(C)C)nc21 (single isomer, unassigned) [Example 197]    18
CCC(c1ccc(OC(F)F)c(F)c1)n1nc(CO)c2c(=O)[nH]c(N(C)C)nc21 (single isomer, unassigned) [Example 126]    0.3

Entry CNc1nc2c(c(CO)nn2C(c2ccc(C(C)(F)F)cc2)C(C)C)c(=O)[nH]1 (single isomer, unassigned) [Example 358] has what Ki?
5.3

----------
# tested-on: Rhesus PDE2A3 (Macaca mulatta)
# Sequence (B3VTJ2 1-941): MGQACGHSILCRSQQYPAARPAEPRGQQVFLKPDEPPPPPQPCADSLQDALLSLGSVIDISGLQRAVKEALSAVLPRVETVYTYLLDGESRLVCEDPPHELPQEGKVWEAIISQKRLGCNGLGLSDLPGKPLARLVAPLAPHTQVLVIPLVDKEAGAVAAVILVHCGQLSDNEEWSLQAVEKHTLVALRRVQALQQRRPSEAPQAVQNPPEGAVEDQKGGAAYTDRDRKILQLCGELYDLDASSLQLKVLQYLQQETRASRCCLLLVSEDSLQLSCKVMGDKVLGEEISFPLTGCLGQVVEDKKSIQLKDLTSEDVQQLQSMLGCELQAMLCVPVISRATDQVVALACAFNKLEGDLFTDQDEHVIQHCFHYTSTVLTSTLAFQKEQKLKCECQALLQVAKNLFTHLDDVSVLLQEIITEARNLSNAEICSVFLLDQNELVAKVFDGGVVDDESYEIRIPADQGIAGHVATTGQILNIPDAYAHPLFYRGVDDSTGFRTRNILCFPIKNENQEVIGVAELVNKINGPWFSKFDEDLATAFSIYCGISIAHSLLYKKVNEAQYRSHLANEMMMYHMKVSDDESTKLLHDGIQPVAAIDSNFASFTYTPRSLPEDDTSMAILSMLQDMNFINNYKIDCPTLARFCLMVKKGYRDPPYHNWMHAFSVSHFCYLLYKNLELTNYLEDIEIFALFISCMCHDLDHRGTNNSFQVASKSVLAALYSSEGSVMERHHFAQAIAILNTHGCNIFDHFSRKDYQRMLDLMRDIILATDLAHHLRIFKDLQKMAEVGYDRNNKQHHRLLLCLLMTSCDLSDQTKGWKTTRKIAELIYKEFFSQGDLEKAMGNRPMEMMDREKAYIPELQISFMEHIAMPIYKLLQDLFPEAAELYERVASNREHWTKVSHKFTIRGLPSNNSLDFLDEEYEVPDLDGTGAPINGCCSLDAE
# experimental-details: PDE2 fluorescence polarization (IMAP FP) assay, rhesus PDE2A3
# Type: biochemical, rhesus macaque
# condition-summary: Lab A, read-out: Rhesus PDE2 Ki (nM) Lab A
Examples of compounds with documented Ki follow.

Enter reported Ki observed with Rhesus PDE2A3 (Macaca mulatta) for CC(c1ccc(OC(F)(F)F)c(F)c1)n1nc(CF)c2c(=O)[nH]c(O)nc21 (stereo not shown)
7.2 nM

What do you get for Cc1ccc(C(C)n2nc(CO)c3c(=O)[nH]c(O)nc32)cc1 (stereo not shown) ?
411 nM

What do you get for CC(c1ccc(C(F)(F)F)cc1)n1nc(CO)c2c(=O)[nH]c(O)nc21 (single isomer, unassigned) [Example 18] ?
> 1000 nM

----------
# tested-on: Rhesus PDE2A3 (Macaca mulatta)
# experimental-details: PDE2 fluorescence polarization (IMAP FP) assay, rhesus PDE2A3
# Type: biochemical, rhesus macaque
# condition-summary: Lab B, read-out: Rhesus PDE2 Ki (nM) Lab B
# Procedure: A Labcyte Echo 555 (Labcyte, Sunnyvale, Calif.) is used to dispense 200 nL from each well of the titration plate to the 384 well assay plate. […] The plate was incubated at room temperature for at least one hour prior to determining the fluorescence polarization (FP). The parallel and perpendicular fluorescence of each well of the plate was measured using a Tecan Genios Pro plate reader (Tecan, Switzerland) or Perkin Elmer EnVision™ plate reader (Waltham, Mass.). […]
Examples of compounds with documented Ki follow.
Your answer should be a plain number; it is taken to be in nM.

C[C@@H](c1ccc(C(F)(F)F)cc1)n1nc(CO)c2c(=O)[nH]c(N3CCCC3)nc21    0.47
CC(C)C(c1ccc(C(F)(F)F)cc1)n1nc(CF)c2c(=O)[nH]c(O)nc21 (stereo not shown)    2
CC(c1ccc(C(F)(F)F)cc1)n1nc(CC(F)(F)F)c2c(=O)[nH]c(O)nc21 (single isomer, unassigned)    1.5

Entry CN(C)c1nc2c(c(CF)nn2C(c2ccc(C(F)(F)F)cc2)C2CC2)c(=O)[nH]1 (single isomer, unassigned) has what Ki?
0.072

What do you get for CC(C)c1ccc(C(C2CC2)n2nc(CO)c3c(=O)[nH]c(N(C)C)nc32)cc1 (single isomer, unassigned) [Example 77] ?
0.084

What do you get for CC(C)C(c1ccc(C(F)(F)F)cc1)n1nc(CO)c2c(=O)[nH]c(N(C)C)nc21 (single isomer, unassigned) [Example 65] ?
0.076

What do you get for CCC(c1ccc(C(F)(F)F)c(F)c1)n1nc(CO)c2c(=O)[nH]c(N(C)C)nc21 (single isomer, unassigned) [Example 144] ?
3.1

What do you get for CC(c1ccc(S(F)(F)(F)(F)F)cc1)n1nc(CC(F)(F)F)c2c(=O)[nH]c(O)nc21 (racemic) ?
25

What do you get for CC(c1ccc(C(F)F)cc1)n1nc(CF)c2c(=O)[nH]c(N(C)C)nc21 (single isomer, unassigned) ?
0.42

What do you get for CC(c1ccc(C(C)(C)C)cc1)n1nc(CO)c2c(=O)[nH]c(N(C)C)nc21 (single isomer, unassigned) ?
12

What do you get for CC(c1ccc(OC(F)(F)F)cc1)n1nc(C(F)F)c2c(=O)[nH]c(O)nc21 (single isomer, unassigned) [Example 273] ?
113

What do you get for CCC(c1ccc(CC(F)(F)F)c(F)c1)n1nc(CO)c2c(=O)[nH]c(N(C)C)nc21 (single isomer, unassigned) [Example 97] ?
0.11

What do you get for CC(c1ccc(OC(F)(F)F)c(F)c1)n1nc(CF)c2c(=O)[nH]c(N(C)C)nc21 (single isomer, unassigned) [Example 167] ?
0.18
